Here, each record is paired with measured pIC50 data.
biological target: Androgen receptor (Homo sapiens, UniProt P10275)
Sequence (P10275 whole entry): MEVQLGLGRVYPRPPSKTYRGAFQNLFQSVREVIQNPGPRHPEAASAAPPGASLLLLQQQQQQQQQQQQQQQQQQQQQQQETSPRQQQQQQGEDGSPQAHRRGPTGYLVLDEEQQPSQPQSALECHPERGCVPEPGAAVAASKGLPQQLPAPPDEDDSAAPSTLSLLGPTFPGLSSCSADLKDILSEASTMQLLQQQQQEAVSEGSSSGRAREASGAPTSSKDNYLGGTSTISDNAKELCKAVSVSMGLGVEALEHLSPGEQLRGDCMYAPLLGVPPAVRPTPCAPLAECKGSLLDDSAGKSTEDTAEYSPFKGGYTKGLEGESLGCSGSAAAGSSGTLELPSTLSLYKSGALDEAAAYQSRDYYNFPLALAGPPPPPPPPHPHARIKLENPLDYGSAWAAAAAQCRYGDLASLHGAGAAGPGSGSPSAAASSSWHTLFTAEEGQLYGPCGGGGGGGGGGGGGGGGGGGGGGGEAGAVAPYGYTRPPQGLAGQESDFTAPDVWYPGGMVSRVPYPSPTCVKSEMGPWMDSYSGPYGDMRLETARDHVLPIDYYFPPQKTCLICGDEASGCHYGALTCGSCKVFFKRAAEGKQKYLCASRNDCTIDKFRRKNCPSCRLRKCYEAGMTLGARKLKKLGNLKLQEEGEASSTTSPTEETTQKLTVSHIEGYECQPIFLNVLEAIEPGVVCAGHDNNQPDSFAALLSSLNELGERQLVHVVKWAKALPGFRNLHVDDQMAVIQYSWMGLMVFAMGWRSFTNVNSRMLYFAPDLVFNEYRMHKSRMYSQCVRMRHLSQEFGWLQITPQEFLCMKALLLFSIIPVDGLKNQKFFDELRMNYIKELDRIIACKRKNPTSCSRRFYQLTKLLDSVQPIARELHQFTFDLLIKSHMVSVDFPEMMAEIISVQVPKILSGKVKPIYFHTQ
pIC50: −log10 of the molar value.

{"smiles": "C[C@]12CC[C@H]3[C@@H](CC=C4[C@@H]5C(=O)CC[C@@]43C[C@@H]5O)[C@@H]1CC[C@@H]2O", "qual": "<", "pIC50": 6.00}
{"smiles": "C[C@]12CC[C@H]3[C@@H](CC=C4[C@H]5CC=C[C@]43CC[C@@H]5O)[C@@H]1CC[C@@H]2O", "qual": "=", "pIC50": 7.07}
{"smiles": "C[C@]12CC[C@H]3[C@@H](CC=C4[C@H]5CC[C@]43CC[C@@H]5O)[C@@H]1CC[C@@H]2O", "qual": "=", "pIC50": 5.86}
{"smiles": "C[C@]12CC[C@H]3[C@@H](CC=C4C[C@@H]5CC[C@@]43CC(=O)O5)[C@@H]1CC[C@@H]2O", "qual": "<", "pIC50": 6.00}
{"smiles": "C[C@]12CC[C@H]3[C@@H](CC=C4C[C@@H]5CC[C@@]43CCO5)[C@@H]1CC[C@@H]2O", "qual": "=", "pIC50": 6.15}
{"smiles": "CC[C@]12CC[C@H](O)CC1=CC[C@@H]1[C@@H]2CC[C@]2(C)[C@@H](O)CC[C@@H]12", "qual": "=", "pIC50": 7.06}
{"smiles": "C[C@]12CC[C@H]3[C@@H](CC[C@H]4[C@H]5CCC[C@]43CC[C@@H]5O)[C@@H]1CC[C@@H]2O", "qual": "=", "pIC50": 7.17}
